meta.source: PubChem BioAssay (EPA / NIEHS)

Molecular target: Cellular tumor antigen p53 (Homo sapiens) (UniProt P04637)
Sequence (P04637 whole entry, looked up): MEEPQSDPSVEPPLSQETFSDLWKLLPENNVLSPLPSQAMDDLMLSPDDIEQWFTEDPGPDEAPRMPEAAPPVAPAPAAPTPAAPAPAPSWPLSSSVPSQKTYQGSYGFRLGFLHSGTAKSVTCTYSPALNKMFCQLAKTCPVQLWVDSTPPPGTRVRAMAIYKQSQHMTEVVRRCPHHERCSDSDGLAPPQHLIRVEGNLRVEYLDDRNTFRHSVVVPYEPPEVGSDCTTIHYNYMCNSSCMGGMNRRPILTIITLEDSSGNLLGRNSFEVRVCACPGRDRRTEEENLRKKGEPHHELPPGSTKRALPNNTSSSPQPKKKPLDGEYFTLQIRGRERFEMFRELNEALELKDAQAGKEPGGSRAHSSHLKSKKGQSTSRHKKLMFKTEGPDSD
Assay: TOX21_p53_BLA_p5_ratio: Tox21 HCT-116 p53 Agonism Beta-lactamase Assay, Ratio, Phase 5 (AID 2283599)
Results filed as inconclusive are left out. Activity calls are given as the source filed them. How the source made its calls: active means hit-call score of the fitted dose curve at least 0.9, where 1 is the maximum; inconclusive means response in the unintended direction; inactive means score below 0.9.
Pick from true for active, false for inactive when you respond.

Use the examples below as a reference point.
compound	group
CC(=O)C1=C(C)[C@@H]2C[C@@]3(C1)[C@H](C)CC[C@H]3C2(C)C	false
CCCCOCCOCCO	false
NCCN1CCNCC1	false

**Query** For `CCCCOCCOCCOCCO` , which call appears in the assay record?
**Result** false

**Query** Again, but for `CCCO`
**Result** false

**Query** Again, but for `CCCCCCOc1ccc(O)cc1`
**Result** true

**Query** Again, but for `COc1ccccc1O`
**Result** false

**Query** Again, but for `C=C1CC/C=C(\C)CC[C@@H]2[C@@H]1CC2(C)C`
**Result** false

**Query** Again, but for `CC(C)(C)c1cccc(O)c1`
**Result** false

###

Read-out: Human Leukocyte Antigen - DR isotype (HLADR), HLA-DRA (gene 3122)
Experiment: BSK_3C_HLADR: BioMAP Diversity Plus: 3C Assay for Human Leukocyte Antigen - DR isotype (HLADR) Biomarker Activity (AID 2283019)
Conditions: primary human endothelial cells (HUVEC); actives raise or lower the signal
Calls of active or inactive are those of the source. How the source made its calls: active means hit-call score of the fitted dose curve at least 0.9, where 1 is the maximum; inactive means score below 0.9.
measured-parameter: AC50

Completed entries (count: 5):
compound	AC50
C#C[C@]1(O)CC[C@H]2[C@@H]3CCc4cc(O)ccc4[C@H]3CC[C@@]21C	6.67 µM (active)
CCCO[Si](OCCC)(OCCC)OCCC	inactive
C=C(C)C(N)=O	inactive
C=C1CC/C=C(\C)CC[C@@H]2[C@@H]1CC2(C)C	28.7 µM (active)
OCCN1CCOCC1	inactive

**Query** Tell me the measured AC50 of `CCn1cc(C(=O)O)c(=O)c2ccc(C)nc21` , please.
**Result** inactive

**Query** Again, but for `CCOC(=O)CCCCCCCCC(=O)OCC`
**Result** inactive

**Query** Again, but for `C=C(C)C(=O)OCCC(F)(F)C(F)(F)C(F)(F)C(F)(F)C(F)(F)C(F)(F)C(F)(F)C(F)(F)F`
**Result** inactive

**Query** Again, but for CC1=CC(C)C(C=O)C(C)C1 (stereo not drawn) (tested in a mixture with another compound)
**Result** inactive

###

Target: Hepatocyte nuclear factor 6 (Homo sapiens)
Test: ATG_HNF6_CIS: Attagene CIS-FACTORIAL HepG2 Assay for human Hepatocyte Nuclear Factor 6 (HNF6) (AID 2282952)
Conditions: HepG2 Attagene cis-factorial HNF6 reporter transcription; actives raise or lower the signal
Method: ATG_CIS is a cell-based, multiplexed-readout assay that uses HepG2, a human liver cell line, with measurements taken at 24 hours after chemical dosing in a 24-well plate.ATG_HNF6_CIS is one of 52 assay component(s) measured or calculated from the ATG_CIS assay. […] This assay endpoint, ATG_HNF6_CIS, was analyzed with bidirectional fitting relative to DMSO as the negative control and baseline of activity. […]
Activity calls are given as the source filed them. How the source made its calls: active means hit-call score of the fitted dose curve at least 0.9, where 1 is the maximum; inactive means score below 0.9.
Pick from YES (active), NO (inactive) when you respond.

Use the examples below as a reference point.
molecule	target-or-test-system	group
COc1ccccc1NC(=O)CC(C)=O	Hepatocyte nuclear factor 6 (Homo sapiens)	NO
CCCC1CCOC(C)S1 (configuration not stated)	Hepatocyte nuclear factor 6 (Homo sapiens)	NO
CC(C)(C)c1cc(CCC(=O)OCCSCCOC(=O)CCc2cc(C(C)(C)C)c(O)c(C(C)(C)C)c2)cc(C(C)(C)C)c1O	Hepatocyte nuclear factor 6 (Homo sapiens)	NO
CCCCCCOC(C)=O	Hepatocyte nuclear factor 6 (Homo sapiens)	NO

**Query** For `C1=COCCC1` , which call appears in the assay record?
**Result** NO

**Query** Again, but for CCCCOCC(C)OCC(C)O (configuration not stated)
**Result** NO

**Query** Again, but for COC(=O)C(C)Oc1ccc(Oc2ncc(C(F)(F)F)cc2Cl)cc1 (configuration not stated)
**Result** NO

**Query** Again, but for `CC(=O)C1=C(C)[C@@H]2C[C@@]3(C1)[C@H](C)CC[C@H]3C2(C)C`
**Result** YES

**Query** Again, but for `O=S(=O)(O)CCCN1CCOCC1`
**Result** NO

**Query** Again, but for `O=C(O)c1ccc(C(=O)O)c(C(=O)O)c1`
**Result** NO

**Query** Again, but for `[Na+]`
**Result** NO

**Query** Again, but for `CCOC(=O)C(=O)OCC`
**Result** NO

**Query** Again, but for `CCCC1CCC(=O)CC1`
**Result** NO

**Query** Again, but for `[Cu+]`
**Result** NO
